- System: UACC-62 melanoma
- ASSAY NAME: NCI-60 one-dose screen, 48 h (100 = growth as untreated, 0 = no growth, -100 = all killed)
- CONDITION: 10 µM unless noted
- Description: Growth inhibition of the UACC-62 human tumor cell line is measured as a screen for anti-cancer activity. Cells are grown in 96 well plates and exposed to the test compound for 48 hours. Compounds are tested at a single concentration, which is 10^-5 M for most compounds. The reported endpoint is percent growth (GI% or GIPRCNT), where numbers from 0 - 100% represent growth inhibition, and numbers from -100% - 0 represent cell death. For example, a value of 40 represents 60% growth inhibition. […]
Compounds without any hit were thinned out: in the full panel of roughly 83,000, 20% have a hit.
Record form. Attribute: growth. Fill in for each entry.
Give bare numbers, in %.

Use the examples below as a reference point.
CHEMICAL STRUCTURE: Clc1ccc2c(N/N=C/c3c[nH]c4ccccc34)ccnc2c1
growth / %: -61.7
//
CHEMICAL STRUCTURE: Nc1ncc(-c2ccc3ncnc(NCc4ccccc4)c3c2)cn1
growth / %: 44.8

Your task in this section: give growth for each listed record.
1. CC1=C(C)C(=O)C(Nc2ccc(C)cc2)=C(Br)C1=O
2. NC1CC2(CCN(c3cnc(C(=O)Nc4cc(F)cc5cccnc45)cn3)CC2)C1

Result:
1: 92.2; 2: 95.4

Your task in this section: give growth for each listed record.
1. CN1CCN(c2ccc(Nc3nc(NCCCNS(=O)(=O)c4cccc5ccccc45)c4sccc4n3)cc2)CC1
2. CN1CCN(c2ccc(Nc3nc(NCCCNS(=O)(=O)c4ccc(Cl)cc4)c4sccc4n3)cc2)CC1
3. O=C(CCCCCCN1CC(=O)N2[C@@H](c3cccs3)c3[nH]c4ccccc4c3C[C@H]2C1=O)NO
4. C#Cc1nc(/C=C\CCCCCCC(=O)NO)cs1

Result:
[-61, -30.5, 5.39, 31.2]

Entry source: PubChem BioAssay (NCI)
